biological target: GBA1 (Homo sapiens, UniProt P04062, R534H); construct: purchased Sanofi (Cerezyme); assay: GBA1 activity, recombinant human enzyme (Cerezyme), 4-MU-β-glucoside substrate; type: biochemical;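 further: enzyme activity read out as fluorescence of the 4-MU released from the substrate, measured on a fluorimeter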
Sequence (P04062 40-536 R534H): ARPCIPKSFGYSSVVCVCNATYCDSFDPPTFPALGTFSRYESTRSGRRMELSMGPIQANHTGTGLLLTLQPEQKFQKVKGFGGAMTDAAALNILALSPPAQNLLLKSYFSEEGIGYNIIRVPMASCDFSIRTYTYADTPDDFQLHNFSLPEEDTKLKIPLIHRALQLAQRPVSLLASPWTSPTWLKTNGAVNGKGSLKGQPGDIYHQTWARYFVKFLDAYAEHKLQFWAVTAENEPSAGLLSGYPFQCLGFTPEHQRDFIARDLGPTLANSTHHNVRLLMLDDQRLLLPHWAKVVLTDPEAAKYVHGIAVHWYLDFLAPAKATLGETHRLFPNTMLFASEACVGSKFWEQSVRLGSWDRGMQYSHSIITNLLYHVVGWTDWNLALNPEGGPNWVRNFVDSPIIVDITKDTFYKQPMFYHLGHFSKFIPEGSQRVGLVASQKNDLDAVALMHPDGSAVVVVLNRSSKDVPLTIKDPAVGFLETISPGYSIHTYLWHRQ
Strictly below 10000 nM in IC50: true. Otherwise: false.

Reference set (4 entries):
Just wondering, is IC50 of N#Cc1ccccc1-c1ccc(COCCCCCN2C[C@H](O)[C@@H](O)[C@H](O)[C@H]2CO)cc1 [Compound 28] below 10000 nM? true

Field entry: OC[C@@H]1[C@@H](O)[C@H](O)[C@@H](O)CN1CCCCCOCc1ccc(-c2cc(C(F)(F)F)cc(C(F)(F)F)c2)cc1 [Compound 22] true

Field entry: OC[C@@H]1[C@@H](O)[C@H](O)[C@@H](O)CN1CCCCCOCc1ccc(-c2ccccc2)c(F)c1 [Compound 7] true

Field entry: OC[C@H]1[C@@H](O)[C@H](O)[C@@H](O)CN1CCCCCOCc1ccccc1-c1ccccc1 [Compound 40] false

Next, consider the following molecule.
Just wondering, is IC50 of OC[C@@H]1[C@@H](O)[C@H](O)[C@@H](O)CN1CCCCCOCc1ccc(-c2ccc3c(c2)OCO3)cc1 [Compound 21] below 10000 nM? true

----------
Measured IC50, listed per entry for reference.
target: GBA2 (Homo sapiens, UniProt Q9HCG7); construct: measured using a membrane fraction obtained from Gaucher spleen; from tissue; host or cells: membrane fraction of Gaucher spleen, pre-treated with conduritol B-epoxide; experiment: GBA2 activity, membrane fraction from Gaucher spleen, 4-MU-β-glucoside substrate; assay type: biochemical; settings: L-ido configuration series, Example 4;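 further: Read-out is fluorimetric quantification of released 4-MU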
Sequence (Q9HCG7 whole entry): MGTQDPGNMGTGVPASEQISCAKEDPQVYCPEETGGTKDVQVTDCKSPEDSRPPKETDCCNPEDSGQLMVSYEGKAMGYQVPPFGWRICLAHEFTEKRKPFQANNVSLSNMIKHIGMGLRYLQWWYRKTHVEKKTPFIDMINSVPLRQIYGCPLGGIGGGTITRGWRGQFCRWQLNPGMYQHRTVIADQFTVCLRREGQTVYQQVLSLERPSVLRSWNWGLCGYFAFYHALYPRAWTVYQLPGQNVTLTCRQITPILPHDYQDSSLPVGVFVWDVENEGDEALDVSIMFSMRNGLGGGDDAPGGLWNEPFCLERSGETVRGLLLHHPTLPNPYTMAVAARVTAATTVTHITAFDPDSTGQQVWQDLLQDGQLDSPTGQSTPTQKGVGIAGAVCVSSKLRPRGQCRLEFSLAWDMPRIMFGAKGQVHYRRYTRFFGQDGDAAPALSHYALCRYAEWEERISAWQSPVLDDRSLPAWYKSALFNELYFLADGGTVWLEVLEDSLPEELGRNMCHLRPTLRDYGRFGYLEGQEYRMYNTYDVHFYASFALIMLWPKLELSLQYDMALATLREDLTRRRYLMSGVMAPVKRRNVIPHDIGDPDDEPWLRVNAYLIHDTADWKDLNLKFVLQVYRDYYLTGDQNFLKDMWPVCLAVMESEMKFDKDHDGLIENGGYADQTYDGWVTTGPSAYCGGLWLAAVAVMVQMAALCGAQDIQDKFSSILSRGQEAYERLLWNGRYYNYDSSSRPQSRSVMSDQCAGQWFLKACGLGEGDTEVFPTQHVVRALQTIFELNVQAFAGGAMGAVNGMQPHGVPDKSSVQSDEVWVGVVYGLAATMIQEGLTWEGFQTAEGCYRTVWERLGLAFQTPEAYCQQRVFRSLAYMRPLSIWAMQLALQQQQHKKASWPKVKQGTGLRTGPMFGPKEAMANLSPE
Returns: string containing the number followed by the unit.

Please review the following examples before continuing.
If you can, please state the reported IC50 value of OC[C@H]1[C@@H](O)[C@H](O)[C@@H](O)CN1CCCC(F)(F)COCc1ccc(-c2ccccc2)cc1 [Compound 43] . 2 nM

Field entry: OC[C@H]1[C@@H](O)[C@H](O)[C@@H](O)CN1CCCCCOCc1ccc(-c2ccccc2)cc1F [Compound 46] 0.4 nM

# ---- query compound ----
If you can, please state the reported IC50 value of OC[C@H]1[C@@H](O)[C@H](O)[C@@H](O)CN1CCCCCOCc1cccc(-c2ccccc2)c1 [Compound 41] . 2 nM

----------
Target: glucosylceramide synthase (GCS) (Mus musculus, UniProt O88693)
Construct: IC50 values for GCS activity were measured using living cells; endogenous in cells
Sequence (O88693 1-394): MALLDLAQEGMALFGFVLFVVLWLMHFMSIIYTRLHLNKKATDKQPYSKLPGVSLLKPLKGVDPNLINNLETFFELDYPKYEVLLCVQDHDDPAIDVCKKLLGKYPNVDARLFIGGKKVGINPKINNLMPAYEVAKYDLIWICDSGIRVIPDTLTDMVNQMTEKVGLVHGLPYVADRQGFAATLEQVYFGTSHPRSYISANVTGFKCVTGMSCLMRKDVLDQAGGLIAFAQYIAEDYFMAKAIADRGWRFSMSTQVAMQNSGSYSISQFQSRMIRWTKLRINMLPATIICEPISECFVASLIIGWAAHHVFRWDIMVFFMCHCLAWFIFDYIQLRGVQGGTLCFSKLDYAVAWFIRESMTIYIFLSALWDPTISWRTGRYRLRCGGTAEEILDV
Assay: GCS activity in living macrophage  cells (C6-NBD lipid, TLC readout)
Format: cell-based
Details: read-out: GCS [nM] (IC50)
parameter: IC50
Returns: string containing the number followed by the unit.

Please review the following examples before continuing.
If you can, please state the reported IC50 value of OC[C@@H]1[C@@H](O)[C@H](O)[C@@H](O)CN1CCCCCOCc1ccc(-c2ccc3c(c2)OCO3)cc1 . 25 nM

Field entry: OC[C@@H]1[C@@H](O)[C@H](O)[C@@H](O)CN1CCCCCOCc1ccc(-c2ccccc2)c(C(F)(F)F)c1 25 nM

Continuing:
If you can, please state the reported IC50 value of OC[C@@H]1[C@@H](O)[C@H](O)[C@@H](O)CN1CCCCCOCc1ccc(-c2ccc3c(c2)OCCO3)cc1 . 25 nM

Field entry: OC[C@@H]1[C@@H](O)[C@H](O)[C@@H](O)CN1CCCCCOCc1cccc(-c2ccccc2)c1 75 nM
